# method summary: chemical genetic growth profiling, strain panel (AID 1159580);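 note: tested at 20 µM; growth read once vehicle control cultures reached saturation at 30 °C; 1 = growth at the plate median or of vehicle wells; lower values mean less growth of the strain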
# condition: S. cerevisiae deletion strains, growth OD, locus YNL153C, strain GIM3, hits give low values
About 2,000 (36%) of roughly 5,500 compounds were called active. About 18% were inconclusive and are not listed. The list shows a part of the results.
assay metric: normalized growth

[
  {
    "compound": "CC(C)=CCC1=C(O)c2ccccc2C(=O)C1=O",
    "test value": 0.965
  },
  {
    "compound": "Cc1ncc([N+](=O)[O-])n1CCO",
    "test value": 1.01
  },
  {
    "compound": "CC1=CC(C)(C)NC(=S)N1",
    "test value": 0.997
  },
  {
    "compound": "Cc1ccc(S(=O)(=O)/C(C#N)=N\\O)cc1",
    "test value": 0.989
  },
  {
    "compound": "C[C@H]1C(=O)O[C@@H]2CCN3CC=C(COC(=O)[C@](C)(O)[C@]1(C)O)[C@H]23",
    "test value": 1.02
  },
  {
    "compound": "N/C(=N/OC(=O)C(Cl)Cl)c1cccc(Cl)c1Cl",
    "test value": 1.01
  },
  {
    "compound": "CCCCCc1ccc(S(=O)(=O)Nc2cccnc2Oc2ccc(Cl)cc2)cc1",
    "test value": 1
  },
  {
    "compound": "CCn1cc([N+](=O)[O-])nc1C",
    "test value": 1.02
  },
  {
    "compound": "Oc1ccc(C2CNCc3sccc32)cc1O (configuration not stated)",
    "test value": 0.963
  },
  {
    "compound": "N#CCCNc1cc(C(F)(F)F)cc(C(F)(F)F)c1",
    "test value": 0.96
  },
  {
    "compound": "CN(C)c1nc(N(C)C)nc(N(C)C)n1",
    "test value": 0.995
  },
  {
    "compound": "O=C(NC(c1ccccc1)C(N=Cc1ccccc1)c1ccccc1)c1ccccc1 (configuration not stated)",
    "test value": 0.998
  },
  {
    "compound": "O=C1c2ccc(O)c(O)c2C(=O)c2c(O)ccc(O)c21",
    "test value": 0.998
  },
  {
    "compound": "c1coc(CNc2ncnc3nc[nH]c23)c1",
    "test value": 0.991
  },
  {
    "compound": "NC(=S)c1ccc2nonc2c1",
    "test value": 1.01
  },
  {
    "compound": "CC(=O)N[C@@H](CC(=O)O)C(=O)O",
    "test value": 1
  },
  {
    "compound": "N[C@@]1(C(=O)O)CC[C@@H](C(=O)O)C1",
    "test value": 1
  },
  {
    "compound": "Cc1cc(O)c2c(c1O)C(=O)c1c(O)cc(C)c(O)c1C2=O",
    "test value": 0.965
  },
  {
    "compound": "COc1cccc(CC(=O)NN)c1",
    "test value": 1.04
  },
  {
    "compound": "COc1ccccc1CNCCCCCCNCCCCCCCCNCCCCCCNCc1ccccc1OC",
    "test value": 0.942
  },
  {
    "compound": "Cc1cccc(N2C(=O)C3C4C=CC(C4)C3C2=O)n1 (configuration not stated)",
    "test value": 1
  },
  {
    "compound": "N#C/C(=C\\Nc1ccc2c(c1)OCCO2)S(=O)(=O)c1ccc(C(F)(F)F)cn1",
    "test value": 1.02
  }
]

###

# method summary: chemical genetic growth profiling, strain panel (AID 1159580);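 note: tested at 20 µM; growth read once vehicle control cultures reached saturation at 30 °C; 1 = growth at the plate median or of vehicle wells; lower values mean less growth of the strain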
# condition: S. cerevisiae deletion strains, growth OD, locus YGR135W, strain pre9, hits give low values
In all, about 5,500 compounds went through this assay and about 2,000 (36%) were called active. Another 18% or so got no clear call; they are omitted. The list shows a part of the results.
Below, each entry is listed alongside its reported normalized growth.

[
  {
    "compound": "C[C@]12CCC3C(CC[C@H]4C[C@@H](O)CC[C@]34C)C1CCC2=O (stereo partly specified)",
    "normalized growth": "0.711 (active)"
  },
  {
    "compound": "C/C=C(\\C)C(=O)OC1[C@@H]2C=C3C4CC(=O)O[C@@H](c5ccoc5)[C@]4(C)CCC3[C@@](C)(C2=O)[C@@H](C(O)C(=O)OC)C1(C)C (stereo partly specified)",
    "normalized growth": "1.03 (inactive)"
  },
  {
    "compound": "CCCc1nc(C(C)(C)O)c(C(=O)OCc2oc(=O)oc2C)n1Cc1ccc(-c2ccccc2-c2nn[nH]n2)cc1",
    "normalized growth": "0.995 (inactive)"
  },
  {
    "compound": "O=c1ccc2cc(O[C@@H]3O[C@H](CO)[C@@H](O)[C@H](O)[C@H]3O)c(O)cc2o1",
    "normalized growth": "0.995 (inactive)"
  },
  {
    "compound": "NCCS",
    "normalized growth": "1.02 (inactive)"
  },
  {
    "compound": "CCCCCN=C(N)N/N=C\\c1c[nH]c2ccc(OC)cc12",
    "normalized growth": "1.02 (inactive)"
  },
  {
    "compound": "CC(C)CCCC(C)C1CCC2C3CCC4CC(=O)CCC4(C)C3CCC12C (stereo unspecified)",
    "normalized growth": "1.03 (inactive)"
  },
  {
    "compound": "Cc1cccc(N(C)C(=S)Oc2ccc3ccccc3c2)c1",
    "normalized growth": "0.997 (inactive)"
  },
  {
    "compound": "C=C(C)c1cc2cc(C(C)=O)c(O)cc2o1",
    "normalized growth": "0.971 (inactive)"
  },
  {
    "compound": "CC(=O)OC1CCC2C3CCc4cc(O)ccc4C3CCC12C (stereo unspecified)",
    "normalized growth": "1.03 (inactive)"
  },
  {
    "compound": "CC1=C2[C@](C)(C=CC1=O)C[C@H](O)[C@H]1[C@H](C)C(=O)O[C@]21C",
    "normalized growth": "1.01 (inactive)"
  },
  {
    "compound": "OCCN1CCN(CCCN2c3ccccc3Sc3ccc(Cl)cc32)CC1",
    "normalized growth": "0.958 (inactive)"
  },
  {
    "compound": "CN1CCN(C(c2ccccc2)c2ccccc2)CC1",
    "normalized growth": "0.979 (inactive)"
  },
  {
    "compound": "CCCCC/C=C\\C/C=C\\C/C=C\\C/C=C\\CCCC(=O)O",
    "normalized growth": "0.971 (inactive)"
  },
  {
    "compound": "CCCC(=O)Nc1ncnc2c1ncn2C1O[C@@H]2COP(=O)(O)O[C@H]2[C@H]1OC(=O)CCC (stereo partly specified)",
    "normalized growth": "1.03 (inactive)"
  },
  {
    "compound": "COc1cc(OC)c2c(c1Cl)OC1(C2=O)C(O)=CC(=O)CC1C (stereo unspecified)",
    "normalized growth": "0.983 (inactive)"
  },
  {
    "compound": "C[C@]12C=CC(=O)C=C1CCC1C2C(=O)C[C@@]2(C)C1CC[C@]2(O)C(=O)CO (stereo partly specified)",
    "normalized growth": "0.997 (inactive)"
  },
  {
    "compound": "CC(=O)OC1CCC23C(=O)OC45CCC(C6=CC(=O)OC6)C4(C)CCC2C5CCC3(O)C1 (stereo unspecified)",
    "normalized growth": "0.997 (inactive)"
  },
  {
    "compound": "COc1cc(OC)cc(OC)c1",
    "normalized growth": "0.0735 (active)"
  },
  {
    "compound": "c1coc(CNc2ncnc3nc[nH]c23)c1",
    "normalized growth": "0.997 (inactive)"
  },
  {
    "compound": "C[C@]12C=CC(=O)C=C1CCC1C2CC[C@]2(C)C(=O)CCC12 (stereo partly specified)",
    "normalized growth": "0.996 (inactive)"
  },
  {
    "compound": "CC1(C)C[C@@H]2C(=O)CC[C@H]3O[C@]3(C)CC[C@H]21",
    "normalized growth": "0.999 (inactive)"
  },
  {
    "compound": "O=C1OC(=O)C2C3CCC(O3)C12 (stereo unspecified)",
    "normalized growth": "0.967 (inactive)"
  },
  {
    "compound": "COC(=O)C1=CO[C@@H](O[C@@H]2O[C@H](CO)[C@@H](O)[C@H](O)[C@H]2O)[C@@H]2[C@@H](C)[C@@H](O)C[C@H]12",
    "normalized growth": "1 (inactive)"
  },
  {
    "compound": "CC(=O)OCC(=O)[C@@]1(O)CCC2C3CCC4=CC(=O)CC[C@]4(C)[C@@]3(F)[C@@H](O)C[C@@]21C (stereo partly specified)",
    "normalized growth": "1.03 (inactive)"
  },
  {
    "compound": "COc1ccc(Cc2nccc3cc(OC)c(OC)cc23)cc1OC",
    "normalized growth": "0.977 (inactive)"
  },
  {
    "compound": "CCC(=O)O[C@H]1CCC2C3CCc4cc(O)ccc4C3CC[C@@]21C (stereo partly specified)",
    "normalized growth": "1.01 (inactive)"
  },
  {
    "compound": "COc1cc2ccc(=O)oc2c(O)c1O",
    "normalized growth": "0.966 (inactive)"
  },
  {
    "compound": "COC(=O)C[C@H]1C(C)(C)C(OC(C)=O)[C@]2(O)C=C3C4CC(=O)O[C@@H](c5ccoc5)[C@]4(C)CCC3[C@@]1(C)C2=O (stereo partly specified)",
    "normalized growth": "1.02 (inactive)"
  },
  {
    "compound": "COc1ccc2c(=O)c(CC(=O)O)coc2c1",
    "normalized growth": "0.949 (inactive)"
  },
  {
    "compound": "COc1cc2ccc(=O)oc2cc1O",
    "normalized growth": "1 (inactive)"
  }
]
